Listed next: entries and their corresponding EC50.
Biological target: Peroxisome proliferator-activated receptor gamma/Nuclear receptor coactivator 1 (Homo sapiens, UniProt P37231);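 also: agonist potency as compounds enhance coactivator SRC-1 recruitment to PPARgamma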
Sequence (P37231 whole entry): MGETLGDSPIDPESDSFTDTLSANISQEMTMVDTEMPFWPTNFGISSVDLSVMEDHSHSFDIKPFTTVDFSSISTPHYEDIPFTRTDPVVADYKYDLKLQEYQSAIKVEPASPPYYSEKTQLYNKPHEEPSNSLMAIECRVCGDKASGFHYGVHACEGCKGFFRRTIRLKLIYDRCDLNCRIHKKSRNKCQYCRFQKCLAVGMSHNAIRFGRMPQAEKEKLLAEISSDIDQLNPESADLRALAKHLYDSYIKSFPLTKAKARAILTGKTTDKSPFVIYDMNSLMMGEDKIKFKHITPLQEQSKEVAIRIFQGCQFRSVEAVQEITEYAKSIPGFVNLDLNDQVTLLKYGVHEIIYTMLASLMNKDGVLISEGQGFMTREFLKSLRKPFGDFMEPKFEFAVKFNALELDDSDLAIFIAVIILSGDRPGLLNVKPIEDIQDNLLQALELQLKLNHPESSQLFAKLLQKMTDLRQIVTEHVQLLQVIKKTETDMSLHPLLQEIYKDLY
Sequence (Q15788 whole entry, further chain): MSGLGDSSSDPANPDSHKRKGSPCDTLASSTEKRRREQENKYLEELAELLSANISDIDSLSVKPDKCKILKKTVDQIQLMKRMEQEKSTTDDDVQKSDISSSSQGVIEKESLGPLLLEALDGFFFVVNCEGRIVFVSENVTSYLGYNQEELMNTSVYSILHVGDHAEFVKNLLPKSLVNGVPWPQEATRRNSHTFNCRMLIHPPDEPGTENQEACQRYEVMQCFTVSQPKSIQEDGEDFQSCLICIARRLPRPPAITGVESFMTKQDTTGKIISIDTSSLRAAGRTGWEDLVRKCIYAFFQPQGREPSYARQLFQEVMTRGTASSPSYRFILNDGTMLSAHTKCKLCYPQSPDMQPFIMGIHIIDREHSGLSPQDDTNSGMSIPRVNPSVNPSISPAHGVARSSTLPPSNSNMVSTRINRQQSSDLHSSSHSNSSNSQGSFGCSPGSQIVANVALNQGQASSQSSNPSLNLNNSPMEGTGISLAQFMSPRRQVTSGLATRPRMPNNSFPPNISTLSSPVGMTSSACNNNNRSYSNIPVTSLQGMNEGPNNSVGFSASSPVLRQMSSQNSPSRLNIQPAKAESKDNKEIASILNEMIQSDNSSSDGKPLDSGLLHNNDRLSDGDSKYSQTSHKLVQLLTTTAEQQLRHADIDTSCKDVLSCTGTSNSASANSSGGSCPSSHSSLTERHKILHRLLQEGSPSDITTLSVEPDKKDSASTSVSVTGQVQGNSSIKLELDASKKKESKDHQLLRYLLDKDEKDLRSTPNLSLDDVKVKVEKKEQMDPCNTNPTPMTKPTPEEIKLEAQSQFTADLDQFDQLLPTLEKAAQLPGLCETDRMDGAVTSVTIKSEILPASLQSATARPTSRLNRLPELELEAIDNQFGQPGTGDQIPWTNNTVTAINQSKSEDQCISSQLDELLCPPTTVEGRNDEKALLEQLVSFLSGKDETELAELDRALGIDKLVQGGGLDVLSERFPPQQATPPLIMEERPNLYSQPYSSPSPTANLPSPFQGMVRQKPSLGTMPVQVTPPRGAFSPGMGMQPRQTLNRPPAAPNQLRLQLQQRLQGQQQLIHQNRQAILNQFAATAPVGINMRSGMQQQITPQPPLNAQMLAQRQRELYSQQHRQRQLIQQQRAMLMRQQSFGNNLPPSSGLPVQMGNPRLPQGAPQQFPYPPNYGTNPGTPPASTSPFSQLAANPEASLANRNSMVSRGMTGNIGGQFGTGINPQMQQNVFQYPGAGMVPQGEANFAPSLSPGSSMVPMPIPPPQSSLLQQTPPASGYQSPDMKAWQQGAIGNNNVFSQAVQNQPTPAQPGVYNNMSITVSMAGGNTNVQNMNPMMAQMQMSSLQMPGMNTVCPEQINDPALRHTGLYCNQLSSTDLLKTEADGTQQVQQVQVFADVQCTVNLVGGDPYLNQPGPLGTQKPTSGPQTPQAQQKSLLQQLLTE
Format: functional

Here is how some compounds turned out for EC50.
compound.string: O=C(c1cnc(-c2ccc(Cl)cc2)s1)c1ccc(Cl)cc1Cl
EC50: 30.8 µM (not active)

compound.string: Cc1cc(C)n(-c2nc(SCC(=O)Nc3nccs3)c3c4c(sc3n2)COC(C)(C)C4)n1
EC50: > 79.4 µM (not active)

compound.string: Cc1n[nH]c(C)c1S(=O)(=O)N(CC(=O)Nc1ccc2c(c1)OCCO2)c1ccc(C(C)C)cc1
EC50: > 79.4 µM (not active)

compound.string: CCCCOc1ccc(NC2=NC3(CCCC3)N=C(N)N2)cc1
EC50: > 79.4 µM (not active)

compound.string: CCN(CC)S(=O)(=O)c1cccc(NC(=O)COC(=O)c2nnc(O)c3ccccc23)c1
EC50: > 79.4 µM (not active)

Okay, next one:
Reported EC50 for COC(=O)c1ccc(C(=O)OC)c(NC(=O)C(C)(C)C)c1 : what is it?
> 79.4 µM (not active)
